Source listed as the NIST ThermoML archive (doi:10.1016/j.fluid.2010.02.022).

# MEASUREMENT_SETUP: 313 K; 101 kPa; Liquid; Pendant drop method
Below, each entry is listed with its recorded interfacial tension.
VALUE_KIND: interfacial tension (mN/m)

• CCn1cc[n+](C)c1.O=S(=O)([N-]S(=O)(=O)C(F)(F)F)C(F)(F)F + CCCCCCCC = 11.43
• CCCCCCCCn1cc[n+](C)c1.O=S(=O)([N-]S(=O)(=O)C(F)(F)F)C(F)(F)F + CCCCCCCC = 3.38
• CCCC[n+]1ccn(C)c1.O=S(=O)([N-]S(=O)(=O)C(F)(F)F)C(F)(F)F + CCCCCCCC = 8.1
• CCCCCCCCn1cc[n+](C)c1.O=S(=O)([N-]S(=O)(=O)C(F)(F)F)C(F)(F)F + O = 15.06
• CCn1cc[n+](C)c1.O=S(=O)([N-]S(=O)(=O)C(F)(F)F)C(F)(F)F + O = 9.05
• CCCCn1cc[n+](C)c1.O=C([O-])C(F)(F)F [1-butyl-3-methylimidazolium trifluoroacetate] + CCCCCC = 8.16
• CCCC[n+]1ccn(C)c1.O=S(=O)([N-]S(=O)(=O)C(F)(F)F)C(F)(F)F + O = 11.62
• CCCCCCCCn1cc[n+](C)c1.O=S(=O)([N-]S(=O)(=O)C(F)(F)F)C(F)(F)F + CCCCCCCCCC = 3.51
• CCn1cc[n+](C)c1.O=S(=O)([N-]S(=O)(=O)C(F)(F)F)C(F)(F)F + CCCCCC = 10.82
• CCCC[n+]1ccn(C)c1.O=S(=O)([N-]S(=O)(=O)C(F)(F)F)C(F)(F)F + CCCCCC = 7.24
• CCCCCCCCn1cc[n+](C)c1.O=S(=O)([N-]S(=O)(=O)C(F)(F)F)C(F)(F)F + CCCCCC = 2.88
• CCCCn1cc[n+](C)c1.O=C([O-])C(F)(F)F [1-butyl-3-methylimidazolium trifluoroacetate] + CCCCCCCCCC = 10.04
• CCCCn1cc[n+](C)c1.O=S(=O)([O-])C(F)(F)F [1-butyl-3-methylimidazolium trifluoromethanesulfonate] + CCCCCCCCCC = 10.31
• Cn1cc[n+](C)c1.O=S(=O)([N-]S(=O)(=O)C(F)(F)F)C(F)(F)F [1,3-dimethylimidazolium bis((trifluoromethyl)sulfonyl)amide] + O = 7.14
• CCCC[n+]1ccn(C)c1.O=S(=O)([N-]S(=O)(=O)C(F)(F)F)C(F)(F)F + CCCCCCCCCC = 8.99
• CCn1cc[n+](C)c1.O=S(=O)([N-]S(=O)(=O)C(F)(F)F)C(F)(F)F + CCCCCCCCCC = 12.41
